Would you kindly list RUNX1 binding intensity for each of these sequences?
# tested_on: RUNX1 (UniProt Q01196)
# Sequence (Q01196 whole entry): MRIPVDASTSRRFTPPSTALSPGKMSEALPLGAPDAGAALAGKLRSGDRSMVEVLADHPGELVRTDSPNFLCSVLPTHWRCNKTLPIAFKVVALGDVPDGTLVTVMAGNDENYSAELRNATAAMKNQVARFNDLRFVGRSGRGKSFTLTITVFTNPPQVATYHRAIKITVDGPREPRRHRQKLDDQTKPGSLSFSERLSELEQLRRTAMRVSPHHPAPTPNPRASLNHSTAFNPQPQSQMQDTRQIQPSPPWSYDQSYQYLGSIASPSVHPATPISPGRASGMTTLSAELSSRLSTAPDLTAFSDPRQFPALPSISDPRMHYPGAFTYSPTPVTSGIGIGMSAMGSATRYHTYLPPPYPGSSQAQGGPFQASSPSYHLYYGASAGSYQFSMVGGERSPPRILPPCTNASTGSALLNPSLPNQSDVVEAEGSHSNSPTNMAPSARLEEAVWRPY
# assay_comment: RUNX1 binding intensity (PBM fluorescence), RUNX1 alone (arbitrary fluorescence units); higher = stronger binding
# condition: RUNX1 concentration 2 nM; ETS1 concentration 0 nM

For each of the items listed, what is its RUNX1 binding intensity?
1. AGTTGTGTTTTAGGATGTGGTCAAAGCCCAACAGAG
2. GGATTAGAACTGCTTCCTCCTGTGGTTTACCAGAAA

[910, 923]

Dear colleague, could you please provide RUNX1 binding intensity for the sequences listed below?
1. GTTCCTTTGAAAGCAGGATGTGGTTTGCCCCAGCTT
2. TCAATGACAGGAAGTTTTTAAACCACATACGGCTAA
3. ACACCCCAGGAAGTGGCAGAGACCACAACAAGTCAG

[881, 904, 874]

====

# tested_on: RUNX1 (UniProt Q01196)
# assay_comment: RUNX1 binding intensity (PBM fluorescence), RUNX1 alone (arbitrary fluorescence units); higher = stronger binding
# condition: RUNX1 concentration 2 nM; ETS1 concentration 0 nM
Class key for RUNX1 binding intensity values: L = under 800, M = from 800 up to 1000, H = 1000 and over

# classify by RUNX1 binding intensity band: GTTGCAGGAAACGATGGGTTTTGTGGTATGAACTGC
M

Which RUNX1 binding intensity band matches GCAGCCCAGCTTCCTGCAGACCAAAACCACAAGCAG ?
H

Lab note: which band did CCAACTTTTGAGGGATGTGGTTACGTTTTCTAGATC land in?
H

Others:
Textbook exercise: identify the category of the sequence given here, TGGCAGAGCACATCCTGTGCGGTTTTCAGTTTTGCT , according to its measured value.
H

State the class of the sequence shown: CCCAAGCTACGGAAGTTAAACCTCAAACATGAAATC
H

In plain terms, what class is TGCAGCGCATCCTGGGACGTGCGGGCGGTGCATGAG ?
L

====

# tested_on: ETS1 (UniProt P14921)
# Sequence: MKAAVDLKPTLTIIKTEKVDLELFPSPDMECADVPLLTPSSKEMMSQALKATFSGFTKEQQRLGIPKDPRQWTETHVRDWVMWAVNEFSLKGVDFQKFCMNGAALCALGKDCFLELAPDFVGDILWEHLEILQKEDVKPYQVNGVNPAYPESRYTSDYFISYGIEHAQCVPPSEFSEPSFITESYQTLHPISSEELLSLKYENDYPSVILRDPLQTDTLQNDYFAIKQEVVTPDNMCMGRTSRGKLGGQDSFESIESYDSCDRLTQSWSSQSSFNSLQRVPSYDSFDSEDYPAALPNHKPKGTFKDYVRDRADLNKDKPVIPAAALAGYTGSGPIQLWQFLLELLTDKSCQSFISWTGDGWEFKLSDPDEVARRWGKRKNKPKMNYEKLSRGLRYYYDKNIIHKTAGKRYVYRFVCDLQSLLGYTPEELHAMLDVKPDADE
# assay_comment: ETS1 binding intensity (PBM fluorescence) in presence of RUNX1, normalised to ETS1-only experiment (arbitrary fluorescence units); higher = stronger binding
# condition: ETS1 concentration 1 nM; RUNX1 concentration 25 nM
measure_name: ETS1 binding intensity
Answers are plain numbers.

Reported ETS1 binding intensity, sequence GAGGGTTGCTGGGGGGAAGTGTGGTAAATCTTTTCC : ____
475

Quick one: ETS1 binding intensity of TGTGTCACTTCCCTATCTGTTGCGGTTGTTCACTCC ?
841

Requested read-out: ETS1 binding intensity. Entry: GGGGCTGTGCTTCCGGCTGTTTGTGCGGTTTTGTGC
6750

From here, focus on the item given below.
Fill in the blank: the reported ETS1 binding intensity of CGGGACTTCCTGTCTTCCCTGTTGCGGAGCTCTGAA is ____.
1830
